Here, each record is paired with measured pIC50 data.
# Assayed target: recombinant N-terminal GST-tagged human Rho kinase 1 (ROCK1, amino acids 1-535) (Homo sapiens, UniProt Q13464)
# Construct: ROCK1, amino acids 1-535; purchased Invitrogen Inc. PV-3691
# Sequence (Q13464 1-535): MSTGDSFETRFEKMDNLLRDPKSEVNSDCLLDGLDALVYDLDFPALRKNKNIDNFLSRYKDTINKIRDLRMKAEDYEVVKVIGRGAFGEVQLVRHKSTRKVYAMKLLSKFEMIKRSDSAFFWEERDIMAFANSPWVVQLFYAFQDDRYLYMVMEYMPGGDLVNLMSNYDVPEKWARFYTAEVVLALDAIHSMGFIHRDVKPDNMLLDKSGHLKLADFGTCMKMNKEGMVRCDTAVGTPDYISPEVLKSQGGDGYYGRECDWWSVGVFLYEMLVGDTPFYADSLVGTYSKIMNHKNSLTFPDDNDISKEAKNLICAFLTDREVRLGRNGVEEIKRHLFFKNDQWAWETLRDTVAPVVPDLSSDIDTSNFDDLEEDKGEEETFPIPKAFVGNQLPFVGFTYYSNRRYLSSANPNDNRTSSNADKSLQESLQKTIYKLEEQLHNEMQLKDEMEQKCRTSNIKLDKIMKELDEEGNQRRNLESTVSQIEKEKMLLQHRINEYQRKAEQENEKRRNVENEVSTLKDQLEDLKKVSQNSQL
# Protocol summary: In vitro Rho kinase assay (luciferase-based ATP consumption), ROCK1
# Assay type: biochemical
# Experimental context: recombinant GST-tagged human ROCK1, luciferase-based ATP consumption; read-out: ROCK1 IC50
pIC50: −log10 of the molar value.

As a guide, the following entries are already answered.
Molecule: CCc1ccc(C(=O)NCc2ccc3sc(-c4ccnc(N)n4)c(C)c3c2)cc1 [Example 137]
pIC50: < 5.30

Molecule: COc1cccc(C(N)c2ccc3sc(-c4ccnc(N)n4)c(C)c3c2)c1 (stereo not drawn) [Example 32]
pIC50: > 5.30

Molecule: Cc1c(-c2ccnc(N)n2)sc2ccc(CNC(=O)c3cccc(Oc4ccccc4)c3)cc12 [Example 282]
pIC50: < 5.30

Molecule: Cc1c(-c2cc(N)nc(N)n2)sc2ccc(Cl)cc12 [Example 9]
pIC50: < 5.30

Report measured pIC50; entry is COc1cc(OC)c(C(=O)NCc2ccc3sc(-c4ccnc(N)n4)c(C)c3c2)c(OC)c1 [Example 277]
> 5.30

* * *

# Assayed target: recombinant N-terminal GST-tagged human Rho kinase 1 (ROCK1, amino acids 1-535) (Homo sapiens)
# Construct: ROCK1, amino acids 1-535; purchased Invitrogen Inc. PV-3691
# Protocol summary: In vitro Rho kinase assay (luciferase-based ATP consumption), ROCK1
# Format: biochemical
# Experimental context: recombinant GST-tagged human ROCK1, luciferase-based ATP consumption; read-out: ROCK1 IC50
pIC50: −log10 of the molar value.
Here, each record is paired with measured pIC50 data.

As a guide, the following entries are already answered.
Molecule: Cc1c(-c2ccnc(N)n2)sc2ccc(Cl)cc12
Assay value: > 5.30
//
Molecule: Cc1ccc([N+](=O)[O-])c(C(=O)NCc2ccc3sc(-c4ccnc(N)n4)c(C)c3c2)c1
Assay value: < 5.30
//
Molecule: Cc1c(-c2ccnc(N)n2)sc2ccc(Nc3cccc(OC(F)(F)F)c3)cc12
Assay value: < 5.30

Report measured pIC50; entry is Cc1c(-c2ccnc(N)n2)sc2ccc(CNC(=O)c3ccc(O)cc3O)cc12
< 5.30

Report measured pIC50; entry is CC(=O)Nc1cccc(C(=O)NCc2ccc3sc(-c4ccnc(N)n4)c(C)c3c2)c1
> 5.30

Report measured pIC50; entry is Cc1c(-c2ccnc(N)n2)sc2ccc(CNC(=O)Cc3c(F)cccc3F)cc12
> 5.30

Report measured pIC50; entry is Cc1c(-c2ccnc(N)n2)sc2ccc(CNC(=O)C3CCc4ccccc43)cc12 (centres unmarked)
> 5.30

Report measured pIC50; entry is CC(=O)NC(Cc1ccc(O)cc1)C(=O)NCc1ccc2sc(-c3ccnc(N)n3)c(C)c2c1 (centres unmarked)
< 5.30

Report measured pIC50; entry is Cc1c(-c2ccnc(N)n2)sc2ccc(CNC(=O)CCc3ccccc3Br)cc12
< 5.30

* * *

# Assayed target: recombinant N-terminal GST-tagged human Rho kinase 2 (ROCK2, amino acids 1-552) (Homo sapiens)
# Construct: ROCK2, amino acids 1-552; purchased Invitrogen Inc. PV3759
# Sequence (O75116 1-552): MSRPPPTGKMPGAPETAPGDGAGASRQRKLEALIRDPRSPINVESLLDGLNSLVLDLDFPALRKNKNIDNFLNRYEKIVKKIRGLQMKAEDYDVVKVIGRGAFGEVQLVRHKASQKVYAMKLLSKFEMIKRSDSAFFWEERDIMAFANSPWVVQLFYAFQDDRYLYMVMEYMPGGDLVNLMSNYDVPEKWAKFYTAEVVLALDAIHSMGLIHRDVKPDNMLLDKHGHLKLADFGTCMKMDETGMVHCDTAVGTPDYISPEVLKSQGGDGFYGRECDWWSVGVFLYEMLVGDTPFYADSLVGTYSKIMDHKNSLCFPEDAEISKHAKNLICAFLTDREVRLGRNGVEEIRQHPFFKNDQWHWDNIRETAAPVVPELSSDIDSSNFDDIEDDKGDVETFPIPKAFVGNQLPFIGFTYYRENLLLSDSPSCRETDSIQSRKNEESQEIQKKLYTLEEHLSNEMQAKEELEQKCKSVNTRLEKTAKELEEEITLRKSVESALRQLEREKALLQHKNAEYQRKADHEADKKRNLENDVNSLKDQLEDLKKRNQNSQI
# Protocol summary: In vitro Rho kinase assay (luciferase-based ATP consumption), ROCK2
# Format: biochemical
# Experimental context: recombinant GST-tagged human ROCK2, luciferase-based ATP consumption; read-out: ROCK2 IC50
pIC50: −log10 of the molar value.
Here, each record is paired with measured pIC50 data.

Compound: Cc1c(-c2ccnc(N)n2)sc2ccc(CNC(=O)c3ccc4ncccc4c3)cc12 [Example 192]
pIC50: > 5.30
//
Compound: CCN(Cc1ccccc1)C(=O)c1ccc2sc(-c3ccnc(N)n3)c(C)c2c1 [Example 499]
pIC50: > 5.30
//
Compound: COc1cc(OC)cc(C(=O)NCc2ccc3sc(-c4ccnc(N)n4)c(C)c3c2)c1 [Example 221]
pIC50: > 5.30

Now look at this entry.
Report measured pIC50; entry is CC1=NN(c2ccc(C(=O)NCc3ccc4sc(-c5ccnc(N)n5)c(C)c4c3)cc2)C(=O)C1 [Example 295]
< 5.30

All values here come from patent US20080021026A1.
